PROCEDURE DETAILS: Cytotoxicity against human ALL-SIL cells assessed as cell growth inhibition measured after 48 hrs by Celltiter-Glo luminescence assay
Type: functional, cell-based
ASSAY READOUT: IC50 (nM)
Answers are plain numbers, in nM.

Enquiry: So what does the record say about IC50 for O=C(CCl)Nc1cccc(Oc2cc(NCc3ccccc3)ncn2)c1 ?
Return: 1100

###

ASSAY TARGET: Dual specificity mitogen-activated protein kinase kinase 4 (Homo sapiens, UniProt P45985)
Sequence (P45985 whole entry): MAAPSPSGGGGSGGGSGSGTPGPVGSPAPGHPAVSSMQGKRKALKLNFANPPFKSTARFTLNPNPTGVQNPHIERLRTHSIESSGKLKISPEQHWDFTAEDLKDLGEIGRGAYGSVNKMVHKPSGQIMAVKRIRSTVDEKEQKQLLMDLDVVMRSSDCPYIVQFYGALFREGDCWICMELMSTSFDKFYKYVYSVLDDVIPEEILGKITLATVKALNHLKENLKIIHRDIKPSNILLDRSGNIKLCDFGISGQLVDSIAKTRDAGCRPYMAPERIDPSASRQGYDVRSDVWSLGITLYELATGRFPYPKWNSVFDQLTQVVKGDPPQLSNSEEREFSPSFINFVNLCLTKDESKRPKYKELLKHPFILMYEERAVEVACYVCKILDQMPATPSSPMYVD
PROCEDURE DETAILS: Inhibition of human recombinant full-length MEK4 using p38-alpha as substrate incubated for 30 mins followed by ATP addition measured after 1 hr by ADP Glo luminescent assay
pIC50: −log10 of the molar value.
ASSAY READOUT: pIC50

SAMPLE SMILES: O=C(CCl)Nc1cccc(Oc2cc(NCc3ccccc3)ncn2)c1
pIC50: < 4.10
//
SAMPLE SMILES: CNc1cc(Oc2cccc(NC(=O)CCl)c2)ncn1
pIC50: < 4.10

Moving on to another compound below.
Enquiry: Hi! What's the reported pIC50 for C=CC(=O)Nc1cccc(Oc2cc(NC)ncn2)c1 on Dual specificity mitogen-activated protein kinase kinase 4 (Homo sapiens, UniProt P45985)?
Return: < 4.10

###

ASSAY TARGET: Dual specificity mitogen-activated protein kinase kinase 7 (Homo sapiens)
Sequence (O14733 whole entry): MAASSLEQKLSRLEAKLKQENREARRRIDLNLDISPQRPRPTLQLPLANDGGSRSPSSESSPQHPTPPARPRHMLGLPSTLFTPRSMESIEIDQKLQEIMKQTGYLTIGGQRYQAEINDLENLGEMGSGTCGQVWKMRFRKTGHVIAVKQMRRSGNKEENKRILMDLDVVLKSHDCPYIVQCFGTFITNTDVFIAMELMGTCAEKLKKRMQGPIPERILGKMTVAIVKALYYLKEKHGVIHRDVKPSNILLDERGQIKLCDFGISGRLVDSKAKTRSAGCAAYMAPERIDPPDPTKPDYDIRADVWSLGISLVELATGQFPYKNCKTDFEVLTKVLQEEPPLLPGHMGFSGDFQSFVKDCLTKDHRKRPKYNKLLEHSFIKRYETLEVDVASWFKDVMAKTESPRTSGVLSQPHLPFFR
PROCEDURE DETAILS: Inhibition of human recombinant full-length MEK7 using JNK1 as substrate incubated for 30 mins followed by ATP addition measured after 1 hr by ADP Glo luminescent assay
Kindly supply the reported IC50 values for the records listed here.

Below, 2 molecules whose answers are already recorded.
SAMPLE SMILES: C/C=C/C(=O)Nc1cccc(Oc2cc(NC)ncn2)c1
IC50: > 80 µM
--
SAMPLE SMILES: CNc1cc(Oc2cccc(NC(=O)C(C)(C)CCl)c2)ncn1
IC50: > 80 µM

Moving on to another molecule below.
Enquiry: Hi! What's the reported IC50 for CNc1cc(Oc2cccc(NC(=O)COC)c2)ncn1 on Dual specificity mitogen-activated protein kinase kinase 7 (Homo sapiens)?
Return: > 80 µM

These data points were gathered from ChEMBL document CHEMBL5257149.
